- measurement.notes: protein stability index of a GFP-peptide fusion (GPS, HEK-293T) (PSI 1-6); higher = more stable;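 note: 24-mer peptide tiles fused after GFP, lentivirally expressed, FACS-sorted into six equal bins by GFP/DsRed ratio, decoded by Illumina sequencing, PSI is the read-weighted mean bin number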
- stated.conditions: treatment: DMSO; c terminus: native
Each entry below carries its recorded protein stability index.
Note: the reply should be a number with no unit written.

Study these solved cases before continuing.
[
  {
    "primary.sequence": "EDDKLVVECVMKGVTSTRVYERA [FABP4]",
    "quantity": "protein stability index",
    "result.value": 3.03
  },
  {
    "primary.sequence": "FRPEMKKHSWCLKRKNPPNERTV [N4BP2L1]",
    "quantity": "protein stability index",
    "result.value": 3.06
  },
  {
    "primary.sequence": "CKNSNTVYCKLESCPSRGQGKPS [SPRY1]",
    "quantity": "protein stability index",
    "result.value": 3.79
  },
  {
    "primary.sequence": "WPGASGSAQSLDRLGIMGAGLGA [ATP23]",
    "quantity": "protein stability index",
    "result.value": 2.55
  },
  {
    "primary.sequence": "LANLSRTQLLHLGLTQGLIERLK [KLHDC10]",
    "quantity": "protein stability index",
    "result.value": 2.38
  }
]

We now examine a further sequence.
// returns reported protein stability index for input PDMSVTKVVVHKETEITPEDGED [EPB41L3] 5.5

Reference for the values: the supplement of paper PMC10567573
